target.desc: UniProt A9T3E4
assay.protocol: Quercetin fluorescence enhancement assay, PpCHIL-A
Assay type: binding, Physcomitrella patens
assay.conditions: fluorescence enhancement of 10 μM quercetin, protein titrated, 25 °C, pH 8.0
measurement.type: pKd
Conceptually, pKd converts a concentration in mol/L into minus its log10.

Given the compound O=c1c(O)c(-c2ccc(O)c(O)c2)oc2cc(O)cc(O)c12 , what is its reported pKd?
3.62

###

target.desc: VvCHIL (Vitis vinifera, UniProt F6HC36)
Sequence (F6HC36 entry or part of it): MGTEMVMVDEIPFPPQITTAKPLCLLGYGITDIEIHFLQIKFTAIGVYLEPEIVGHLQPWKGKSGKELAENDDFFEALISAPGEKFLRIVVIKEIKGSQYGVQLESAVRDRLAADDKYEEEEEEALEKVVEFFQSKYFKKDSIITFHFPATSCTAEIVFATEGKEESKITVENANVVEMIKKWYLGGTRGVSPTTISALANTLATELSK
assay.protocol: Differential scanning fluorimetry (DSF) thermal shift, VvCHIL
Type: binding
measurement.type: Kd (µM)
State just the number; it will be interpreted in µM.

I'd like to know its Kd. The molecule in question is O=C(/C=C/c1ccc(O)cc1)c1ccc(O)cc1O [2ʹ,4,4ʹ-trihydroxychalcone]
127

###

Entries and their measured pKd follow.
target.desc: PpCHIL-A (Physcomitrium patens, UniProt A9T3E4)
Sequence (A9T3E4 entry or part of it): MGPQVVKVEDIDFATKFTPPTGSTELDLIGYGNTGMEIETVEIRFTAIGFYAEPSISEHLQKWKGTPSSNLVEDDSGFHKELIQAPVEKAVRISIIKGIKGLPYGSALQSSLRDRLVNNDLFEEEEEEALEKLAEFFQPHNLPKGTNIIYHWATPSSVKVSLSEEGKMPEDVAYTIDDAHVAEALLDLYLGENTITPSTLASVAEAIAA
assay.protocol: Differential scanning fluorimetry (DSF) thermal shift, PpCHIL-A
Type: binding, Physcomitrella patens
assay.conditions: DSF, single-site fit, 6 μM protein, pH 8.0, 2% DMSO; read-out: apparent Kd
Convention used: pKd is expressed as -log10 of the molar concentration.

O=C(/C=C/c1ccc(O)cc1)c1c(O)cc(O)cc1O [NC, 2ʹ,4,4ʹ,6ʹ-tetrahydroxychalcone]
4.24

Lab note: need pKd with PpCHIL-A (Physcomitrium patens, UniProt A9T3E4) for entry O=C(/C=C/c1ccccc1O)c1ccc(O)cc1O [2,2ʹ,4ʹ-trihydroxychalcone] , please look it up.
4.07

###

target.desc: VvCHIL W221L (Vitis vinifera, UniProt F6HC36, W221L)
Sequence (F6HC36 entry or part of it W221L): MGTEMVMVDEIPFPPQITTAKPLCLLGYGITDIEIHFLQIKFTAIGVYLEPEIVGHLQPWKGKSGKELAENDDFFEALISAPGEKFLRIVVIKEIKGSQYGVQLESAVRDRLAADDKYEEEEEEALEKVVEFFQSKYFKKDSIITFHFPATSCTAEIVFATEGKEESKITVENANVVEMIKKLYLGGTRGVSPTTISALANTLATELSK
assay.protocol: DSF thermal shift, VvCHIL W221L variant
Assay type: binding
measurement.type: Kd

Looking for the measured Kd of O=C(/C=C/c1ccc(O)cc1)c1c(O)cc(O)cc1O [NC, 2ʹ,4,4ʹ,6ʹ-tetrahydroxychalcone] , can you help?
17 µM

Values were extracted from paper PMC10276294.
